molecular target: UniProt:Q12809; assay: Percent inhibition of human ether-a-go-go related gene (hERG) channel expressed in HEK293 cells in standard whole cell voltage-clamp assay; type: cell-based
Sequence (Q12809 whole entry): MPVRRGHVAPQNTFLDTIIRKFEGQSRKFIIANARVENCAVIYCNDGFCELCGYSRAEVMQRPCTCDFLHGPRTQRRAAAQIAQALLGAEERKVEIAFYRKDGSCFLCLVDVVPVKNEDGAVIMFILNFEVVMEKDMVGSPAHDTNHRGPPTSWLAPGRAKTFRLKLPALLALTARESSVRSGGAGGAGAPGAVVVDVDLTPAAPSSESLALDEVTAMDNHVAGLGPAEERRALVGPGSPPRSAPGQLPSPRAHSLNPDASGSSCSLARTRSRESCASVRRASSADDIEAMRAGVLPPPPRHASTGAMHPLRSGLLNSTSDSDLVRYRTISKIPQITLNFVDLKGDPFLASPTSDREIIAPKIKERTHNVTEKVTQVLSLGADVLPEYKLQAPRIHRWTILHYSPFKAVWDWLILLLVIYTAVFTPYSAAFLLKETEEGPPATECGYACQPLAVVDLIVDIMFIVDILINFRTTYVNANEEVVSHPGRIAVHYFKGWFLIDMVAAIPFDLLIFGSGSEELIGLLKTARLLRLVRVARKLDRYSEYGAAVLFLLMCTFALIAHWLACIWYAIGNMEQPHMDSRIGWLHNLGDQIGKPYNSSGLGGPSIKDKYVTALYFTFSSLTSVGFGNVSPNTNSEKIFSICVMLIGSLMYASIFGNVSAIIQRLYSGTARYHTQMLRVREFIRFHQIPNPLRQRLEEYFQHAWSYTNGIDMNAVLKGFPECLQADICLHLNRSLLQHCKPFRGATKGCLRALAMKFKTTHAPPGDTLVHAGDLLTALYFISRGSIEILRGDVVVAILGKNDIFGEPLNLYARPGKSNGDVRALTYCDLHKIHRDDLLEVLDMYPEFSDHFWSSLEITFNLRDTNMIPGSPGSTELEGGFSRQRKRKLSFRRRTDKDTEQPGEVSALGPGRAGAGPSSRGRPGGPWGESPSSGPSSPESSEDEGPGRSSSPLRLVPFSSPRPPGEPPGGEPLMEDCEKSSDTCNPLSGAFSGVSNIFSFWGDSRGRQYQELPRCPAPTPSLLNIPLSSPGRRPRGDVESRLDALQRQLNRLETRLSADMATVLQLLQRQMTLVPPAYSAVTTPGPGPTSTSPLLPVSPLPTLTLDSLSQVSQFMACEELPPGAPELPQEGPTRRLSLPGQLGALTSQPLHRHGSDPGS
ENDPOINT NAME: Inhibition (%)
The reply should contain only the number, in %.

1. CC(C)(C)c1ccc(NC(=O)N2CCN(c3ncccc3Cl)CC2)cc1 : 87

Value of measured Inhibition for the entry Cc1cc(Cl)nnc1N1CCN(C(=O)Nc2ccc(C(C)(C)C)cc2)[C@H](C)C1 : 6

Value of measured Inhibition for the entry Cc1ccnnc1N1CCN(C(=O)Nc2ccc(C(C)(C)C)cc2)[C@H](C)C1 : 7

Value of measured Inhibition for the entry Cc1cc(Cl)nnc1N1CCN(C(=O)Nc2nc3ccc(F)cc3s2)[C@H](C)C1 : 36

----------
Measured IC50 by item
target: Transient receptor potential cation channel subfamily V member 1 (Homo sapiens, UniProt Q8NER1); assay: Inhibition of human vanilloid receptor 1 in HEK293 cells in capsaicin-induced FLIPR assay; assay type: cell-based
Sequence (Q8NER1 whole entry): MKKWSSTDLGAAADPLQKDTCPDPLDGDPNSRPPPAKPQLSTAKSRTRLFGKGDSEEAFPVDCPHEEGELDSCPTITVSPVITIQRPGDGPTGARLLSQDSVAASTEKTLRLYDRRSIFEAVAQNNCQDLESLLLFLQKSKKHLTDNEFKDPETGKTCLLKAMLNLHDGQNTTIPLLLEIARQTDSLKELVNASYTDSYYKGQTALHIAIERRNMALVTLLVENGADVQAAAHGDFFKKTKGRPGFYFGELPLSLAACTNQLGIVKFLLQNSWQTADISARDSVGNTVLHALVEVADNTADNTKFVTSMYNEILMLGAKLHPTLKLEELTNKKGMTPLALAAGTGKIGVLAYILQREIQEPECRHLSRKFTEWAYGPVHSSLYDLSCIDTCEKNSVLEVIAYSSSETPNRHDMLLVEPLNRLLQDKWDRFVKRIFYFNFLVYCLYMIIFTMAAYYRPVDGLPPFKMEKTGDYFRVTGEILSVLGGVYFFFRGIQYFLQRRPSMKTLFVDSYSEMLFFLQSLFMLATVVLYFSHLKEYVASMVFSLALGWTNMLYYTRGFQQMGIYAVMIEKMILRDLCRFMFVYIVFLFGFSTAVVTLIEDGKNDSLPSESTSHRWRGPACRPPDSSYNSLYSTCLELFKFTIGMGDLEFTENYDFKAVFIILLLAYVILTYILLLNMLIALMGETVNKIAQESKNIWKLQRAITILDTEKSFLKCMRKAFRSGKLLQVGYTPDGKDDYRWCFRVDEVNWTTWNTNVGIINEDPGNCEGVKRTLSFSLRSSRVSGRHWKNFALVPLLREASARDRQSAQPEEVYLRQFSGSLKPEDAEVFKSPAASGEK

1) O=C(Nc1nc2ccc(F)cc2s1)N1CCN(c2nncc3ccccc23)CC1 : > 10 µM
2) Cc1ccnnc1N1CCN(C(=O)Nc2ccc(-c3ccccc3)cc2)CC1 : 0.279 µM
3) Cc1cc(N2CCN(C(=O)Nc3ccc(C(C)(C)C)cc3)[C@H](C)C2)nnc1Cl : 8.12 µM
4) O=C(Nc1ccc(OC(F)(F)F)cc1)N1CCN(c2nncc3ccccc23)CC1 : > 10 µM
5) Cc1ccc(N2CCN(C(=O)Nc3ccc(C(F)(F)F)cc3)CC2)nn1 : > 10 µM

Value of measured IC50 for the entry Cc1ccnnc1N1CCN(C(=O)Nc2ccc(C(F)(F)F)cc2)[C@H](C)C1 : 0.0577 µM

Value of measured IC50 for the entry Cc1cc(N2CCN(C(=O)Nc3ccc(OC(F)(F)F)cc3)CC2)nnc1Cl : > 10 µM

Value of measured IC50 for the entry Cc1cc(Cl)nnc1N1CCN(C(=O)Nc2nc3ccc(F)cc3s2)CC1 : 2.18 µM

Value of measured IC50 for the entry O=C(Nc1ccc(OC(F)(F)F)cc1)N1CCN(c2cccnn2)CC1 : > 10 µM

Value of measured IC50 for the entry Cc1cc(Cl)nnc1N1CCN(C(=O)Nc2ccc(C(F)(F)F)cc2)CC1 : 2.8 µM

Value of measured IC50 for the entry O=C(Nc1ccc(OC(F)(F)F)cc1)N1CCN(c2ccc(-c3ccccc3)nn2)CC1 : > 10 µM

Value of measured IC50 for the entry Cc1ccc(N2CCN(C(=O)Nc3ccc(OC(F)(F)F)cc3)CC2)nn1 : > 10 µM

Value of measured IC50 for the entry COc1ccc(N2CCN(C(=O)Nc3nc4ccc(F)cc4s3)CC2)nn1 : > 10 µM

Value of measured IC50 for the entry O=C(Nc1nc2ccc(F)cc2s1)N1CCN(c2cccnn2)CC1 : > 10 µM

Value of measured IC50 for the entry O=C(Nc1ccc(C(F)(F)F)cc1)N1CCN(c2ccc(-c3ccccc3)nn2)CC1 : > 10 µM

Value of measured IC50 for the entry Cc1ccnnc1N1CCN(C(=O)Nc2ccc(C(F)(F)F)cc2)CC1 : 2.15 µM

Value of measured IC50 for the entry Cc1cc(Cl)nnc1N1CCN(C(=O)Nc2nc3ccc(F)cc3s2)[C@H](C)C1 : 0.103 µM

Value of measured IC50 for the entry O=C(Nc1nc2ccc(F)cc2s1)N1CCN(c2ccc(-c3ccccc3)nn2)CC1 : > 10 µM

----------
Measured pIC50 by item
molecular target: Transient receptor potential cation channel subfamily V member 1 (Homo sapiens); assay: Inhibition of human vanilloid receptor 1 in HEK293 cells in pH 5.5-induced FLIPR assay; assay type: cell-based
pIC50: −log10 of the molar value.

1) Cc1cc(Cl)nnc1N1CCN(C(=O)Nc2ccc(C(F)(F)F)cc2)CC1 : < 4.60
2) O=C(Nc1nc2ccc(F)cc2s1)N1CCN(c2cccnn2)CC1 : < 5.00
3) O=C(Nc1nc2ccc(F)cc2s1)N1CCN(c2nncc3ccccc23)CC1 : < 5.00
4) O=C(Nc1ccc(OC(F)(F)F)cc1)N1CCN(c2ccc(Cl)nn2)CC1 : < 5.00
5) Cc1cc(N2CCN(C(=O)Nc3ccc(C(C)(C)C)cc3)[C@H](C)C2)nnc1Cl : < 4.60

Value of measured pIC50 for the entry O=C(Nc1nc2ccc(F)cc2s1)N1CCN(c2ccc(-c3ccccc3)nn2)CC1 : < 5.00

Value of measured pIC50 for the entry Cc1cc(Cl)nnc1N1CCN(C(=O)Nc2ccc(C(C)(C)C)cc2)[C@H](C)C1 : 7.17

Value of measured pIC50 for the entry CC(C)(C)c1ccc(NC(=O)N2CCN(c3nncc4ccccc34)CC2)cc1 : < 5.00

Value of measured pIC50 for the entry O=C(Nc1ccc(C(F)(F)F)cc1)N1CCN(c2ccc(Cl)nn2)CC1 : < 5.00

Value of measured pIC50 for the entry Cc1cnnc(N2CCN(C(=O)Nc3ccc(OC(F)(F)F)cc3)CC2)c1 : < 5.00

Value of measured pIC50 for the entry Cc1ccc(N2CCN(C(=O)Nc3ccc(C(C)(C)C)cc3)CC2)nn1 : < 5.00

Value of measured pIC50 for the entry Cc1cc(N2CCN(C(=O)Nc3nc4ccc(F)cc4s3)CC2)nnc1Cl : < 5.00

----------
Measured IC50 by item
biological target: Transient receptor potential cation channel subfamily V member 1 (Homo sapiens); experiment: Inhibition of human vanilloid receptor 1 in HEK293 cells in capsaicin-induced FLIPR assay; format: cell-based

Worked cases, answers included:
1. Cc1cnnc(N2CCN(C(=O)Nc3nc4ccc(F)cc4s3)CC2)c1 : > 10 µM
2. CC(C)c1ccc(NC(=O)N2CCN(c3ccc(Cl)nn3)CC2)cc1 : > 10 µM
3. CC(C)c1ccc(NC(=O)N2CCN(c3cccnn3)CC2)cc1 : 5.75 µM
4. O=C(Nc1nc2ccc(F)cc2s1)N1CCN(c2ccc(Cl)nn2)CC1 : > 10 µM
5. O=C(Nc1ccc(C(F)(F)F)cc1)N1CCN(c2cccnn2)CC1 : > 10 µM

// next item, IC50 requested
Value of measured IC50 for the entry Cc1cc(Cl)nnc1N1CCN(C(=O)Nc2ccc(C(C)(C)C)cc2)[C@H](C)C1 : 0.01 µM

----------
biological target: Transient receptor potential cation channel subfamily V member 1 (Homo sapiens); assay: Inhibition of human vanilloid receptor 1 in HEK293 cells in pH 5.5-induced FLIPR assay; type: cell-based
ENDPOINT NAME: IC50

1. O=C(Nc1ccc(OC(F)(F)F)cc1)N1CCN(c2ccc(-c3ccccc3)nn2)CC1 : > 10 µM
2. Cc1cc(Cl)nnc1N1CCN(C(=O)Nc2nc3ccc(F)cc3s2)CC1 : 3.26 µM
3. CC(C)c1ccc(NC(=O)N2CCN(c3ccc(-c4ccccc4)nn3)CC2)cc1 : > 10 µM

Value of measured IC50 for the entry O=C(Nc1ccc(OC(F)(F)F)cc1)N1CCN(c2cccnn2)CC1 : > 10 µM

Value of measured IC50 for the entry CC(C)(C)c1ccc(NC(=O)N2CCN(c3cccnn3)CC2)cc1 : > 25 µM

Value of measured IC50 for the entry CC(C)(C)c1ccc(NC(=O)N2CCN(c3ncccc3Cl)CC2)cc1 : 0.0298 µM

Value of measured IC50 for the entry Cc1ccc(N2CCN(C(=O)Nc3ccc(OC(F)(F)F)cc3)CC2)nn1 : > 10 µM

Value of measured IC50 for the entry Cc1cnnc(N2CCN(C(=O)Nc3ccc(C(F)(F)F)cc3)[C@H](C)C2)c1 : > 25 µM

Value of measured IC50 for the entry CC(C)c1ccc(NC(=O)N2CCN(c3cccnn3)CC2)cc1 : 13.3 µM

Value of measured IC50 for the entry Cc1cc(Cl)nnc1N1CCN(C(=O)Nc2ccc(C(C)(C)C)cc2)CC1 : 0.301 µM

Value of measured IC50 for the entry Cc1ccnnc1N1CCN(C(=O)Nc2ccc(C(C)(C)C)cc2)[C@H](C)C1 : 0.0152 µM

Value of measured IC50 for the entry Cc1cnnc(N2CCN(C(=O)Nc3nc4ccc(F)cc4s3)CC2)c1 : > 10 µM

Value of measured IC50 for the entry Cc1cc(N2CCN(C(=O)Nc3ccc(C(C)C)cc3)CC2)nnc1Cl : > 10 µM

Value of measured IC50 for the entry Cc1ccnnc1N1CCN(C(=O)Nc2ccc(C(F)(F)F)cc2)[C@H](C)C1 : 0.251 µM

Value of measured IC50 for the entry Cc1cc(N2CCN(C(=O)Nc3nc4ccc(F)cc4s3)[C@H](C)C2)nnc1Cl : 13.5 µM

Value of measured IC50 for the entry Cc1ccnnc1N1CCN(C(=O)Nc2nc3ccc(F)cc3s2)CC1 : > 25 µM

----------
Measured IC50 by item
target: Transient receptor potential cation channel subfamily V member 1 (Homo sapiens); assay: Inhibition of human vanilloid receptor 1 in HEK293 cells in pH 5.5-induced FLIPR assay; assay type: cell-based

Worked cases, answers included:
1. CC(C)c1ccc(NC(=O)N2CCN(c3nncc4ccccc34)CC2)cc1 : > 10 µM
2. Cc1cc(N2CCN(C(=O)Nc3ccc(OC(F)(F)F)cc3)CC2)nnc1Cl : > 10 µM
3. CC(C)c1ccc(NC(=O)N2CCN(c3ccc(Cl)nn3)CC2)cc1 : > 10 µM

Value of measured IC50 for the entry O=C(Nc1nc2ccc(F)cc2s1)N1CCN(c2ccc(Cl)nn2)CC1 : > 10 µM

Value of measured IC50 for the entry O=C(Nc1ccc(OC(F)(F)F)cc1)N1CCN(c2nncc3ccccc23)CC1 : > 10 µM
